compounds and their reported logD
- experiment: Octanol/buffer partition coefficient, log D of the compound at pH 7.4 by shake-flask method
- Assay type: physicochemical
parameter: logD

compound	value reported
CC(C)c1ccn2ncnc(N[C@H]3CC[C@@H](N4CCN(C(=O)CCC(=O)NCCOCCOCCOCCOCCNc5cccc6c5C(=O)N(C5CCC(=O)NC5=O)C6=O)CC4)CC3)c12 (stereo partly drawn)	2
CC(C)c1ccn2ncnc(N[C@H]3CC[C@@H](N4CCN(C(=O)CCOCCOCCOCCOCCNc5cccc6c5C(=O)N(C5CCC(=O)NC5=O)C6=O)CC4)CC3)c12 (stereo partly drawn)	2.2
CC(C)c1ccn2ncnc(N[C@H]3CC[C@@H](N4CCN(C(=O)CCC(=O)NCCCCNc5cccc6c5C(=O)N(C5CCC(=O)NC5=O)C6=O)CC4)CC3)c12 (stereo partly drawn)	2.9
